# Assay Notes: CCTE_Shafer_MEA_dev_network_spike_number: CCTE's Neural Network Formation Assay for Number of Network Spikes, Shafer Lab (AID 2284048);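 also: synchronized bursts across electrodes counted on days 5 7 9 12 and integrated as AUC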
The source made the active and inactive calls. The calls were made as follows: active = hit-call score of the fitted dose curve at least 0.9, where 1 is the maximum; inactive = score below 0.9.
Labels: active, inactive

>>> df
                                smiles_text  qualitative_label
0  CCOCn1c(-c2ccc(Cl)cc2)c(C#N)c(Br)c1C(F)(F)F             active
1                    FC(F)OCC(F)(F)C(F)(F)F           inactive
2     Cc1ccccc1OP(=O)(Oc1ccccc1C)Oc1ccccc1C           inactive
3                         NC(=O)c1ccc(N)nc1             active
4                     CC(=O)C(F)(F)C(F)(F)F           inactive
5  Cc1cc(C(F)(C(F)(F)F)C(F)(F)F)ccc1NC(=O)c1cccc(I)c1C(=O)NC(C)(C)CS(C)(=O)=O           inactive
6   O=S(=O)(F)C(F)(F)C(F)(F)C(F)(F)C(F)(F)F           inactive
7                         CC(F)(F)CC(F)(F)F           inactive
